Measured values drawn from patent US20210069143A1 for this set.

assay: Gamma radiation (25-40 kGy) and 5-month storage stability of composition components in HDPE bottles; assay type: physicochemical; conditions: HDPE bottle, T = 0
value-kind: % Change (Unexposed vs. Exposed) (%)
API: value field is a number in %; no unit string.

INSERT INTO assay_data (compound, value_kind, value_reported) VALUES
  ('O=C(O)CC(O)(CC(=O)O)C(=O)O', '% Change (Unexposed vs. Exposed)', 1.1),
  ('CCCOC(=O)c1ccc(O)cc1 [Propylparaben, propyl-para-hydroxybenzoate]', '% Change (Unexposed vs. Exposed)', 0),
  ('COC(=O)c1ccc(O)cc1 [Methylparaben, methyl-para-hydroxybenzoate]', '% Change (Unexposed vs. Exposed)', '−0.4'),
  ('CN(C)c1ccc2nc3ccc(=[N+](C)C)cc-3sc2c1', '% Change (Unexposed vs. Exposed)', '−57.4');

Now examine the next entry.
Provide only the value of recorded % Change (Unexposed vs. Exposed) for CC(C)O 1.2
